system: tumor-repopulating cells of B16-F1 melanoma; assay: Inhibitory activity on proliferation of tumor-repopulating cells (TRCs) of B16-F1 melanoma in 3D fibrin gel; type: cell-based; details: Mus musculus, B16-F1, 120 h; 10 μM, incubated 5 days, colony tumor size; read-out: Inhibition rate on TRCs of B16-F1 melanoma at a concentration of 10 μM (%)
Would you mind labelling by inhibition at 10 µM? At or over 70% is true (1), under is false (0).

Solved cases (2 shown):
compound | label
COC(=O)c1ccc(C#Cc2ccc3c(c2)C(C)(C)CC[S+]3[O-])cc1N (stereo not drawn) [WYC-215] | true (1)
CCOC(=O)c1ccc(C#Cc2ccc3c(c2)C(c2ccccc2)=CCC3(C)C)cc1O [WYC-302] | false (0)

Continue with the next compound.
Exam item: Does the reported inhibition at 10 µM for CCOC(=O)c1ccc(C#Cc2ccc3c(c2)C(C)(C)CCS3)cc1O [WYC-103] fall at or above the 70% mark?
Marked response: true (1)

###

system: tumor-repopulating cells of B16-F1 melanoma; assay: Inhibitory activity on proliferation of tumor-repopulating cells (TRCs) of B16-F1 melanoma in 3D fibrin gel; assay type: cell-based; settings: Mus musculus, B16-F1, 120 h; 10 μM, incubated 5 days, colony tumor size; read-out: Inhibition rate on TRCs of B16-F1 melanoma at a concentration of 10 μM (%)
measured.property: inhibition at 10 µM (%)
Answer with a number only, understood to be in %.

Some solved entries appear below for comparison.
molecule | measured.property | data.value
CC(=O)Nc1cc(C#Cc2ccc3c(c2)C(C)(C)CCS3)ccc1C(=O)O [WYC-213] | inhibition at 10 µM | 71.1
CCOC(=O)c1ccc(C#Cc2ccc3c(c2)C(C)(C)CC[S+]3[O-])c(F)c1F (stereo not drawn) [WYC-315] | inhibition at 10 µM | 70.1
COC(=O)c1ccc(C#Cc2ccc3c(c2)C(C)(C)CCS3)cc1O [WYC-101] | inhibition at 10 µM | 76
CCOC(=O)c1cnc(C#Cc2ccc3c(c2)C(C)(C)CC[S+]3[O-])nc1 (stereo not drawn) [WYC-209] | inhibition at 10 µM | 98.8
CC1(C)CCSc2ccc(C#Cc3ccc(C(=O)O)c(F)c3F)cc21 [WYC-314] | inhibition at 10 µM | 70.1
CCOC(=O)c1cnc(C#Cc2ccc3c(c2)C(C)(C)CCS3(=O)=O)nc1 [WYC-320] | inhibition at 10 µM | 92.6
COC(=O)c1ccc(C#Cc2ccc3c(c2)C(C)(C)CCS3)c(O)c1 [WYC-107] | inhibition at 10 µM | 75
CCOC(=O)c1ccc(C#Cc2ccc3c(c2)C(C)(C)CC[S+]3[O-])cc1N (stereo not drawn) [WYC-218] | inhibition at 10 µM | 90.4
COC(=O)c1ccc(C#Cc2ccc3c(c2)C(C)(C)CCC3(C)C)c(O)c1 [WYC-332] | inhibition at 10 µM | 55.9
CCOC(=O)c1ccc(C#Cc2ccc3c(c2)C(C)(C)CCS3)c(F)c1 [WYC-307] | inhibition at 10 µM | 70.3

Exam item: Which measured inhibition at 10 µM belongs to CCOC(=O)c1ccc(C#Cc2ccc3c(c2)C(C)(C)CCS3)nc1 [Tazarotene, reference compound] , tested on tumor-repopulating cells of B16-F1 melanoma?
Marked response: 67.6

Exam item: Find the measured inhibition at 10 µM: item CCOC(=O)c1ccc(C#Cc2ccc3c(c2)C(C)(C)CC[S+]3[O-])c(F)c1 (stereo not drawn) [WYC-312] , target or system tumor-repopulating cells of B16-F1 melanoma.
Marked response: 71

Exam item: Reported inhibition at 10 µM for tumor-repopulating cells of B16-F1 melanoma, given COC(=O)c1ncc(C#Cc2ccc3c(c2)C(C)(C)CCC3(C)C)cn1 [WYC-338] ?
Marked response: 69

Exam item: Missing value: inhibition at 10 µM, tumor-repopulating cells of B16-F1 melanoma, entry CCOC(=O)c1ccc(C#Cc2ccc3c(c2)C(C)(C)CCS3)c(F)c1F [WYC-313] . Fill in?
Marked response: 62.2

Exam item: # returns recorded inhibition at 10 µM (system: tumor-repopulating cells of B16-F1 melanoma) for CCOC(=O)c1cnc(C#Cc2ccc3c(c2)C(C)(C)CC[S+]3[O-])cn1 (stereo not drawn) [WYC-324]
Marked response: 85.1
